Test system: Sclerotinia sclerotiorum
Experiment: Fungicidal activity against Sclerotinia sclerotiorum, mycelial growth inhibition on PDA plate
Format: cell-based
Conditions: Sclerotinia sclerotiorum, 25 mg/L; read-out: activities against Sclerotinia sclerotiorum (growth inhibition rating)
MEASUREMENT LABEL: inhibition at 25 µg/mL

CCN(Cc1cnc(Cl)s1)c1nc(OC)ccc1[N+](=O)[O-] : > 90%

Look at each compound and report its inhibition at 25 µg/mL.
1. CCOc1ccc([N+](=O)[O-])c(N(CC)Cc2cnc(Cl)s2)n1
2. C#CCOc1ccc([N+](=O)[O-])c(N(CC)Cc2cnc(Cl)s2)n1
3. CCN(Cc1cnc(Br)s1)c1nc(OC)ccc1[N+](=O)[O-]
4. CCN(Cc1cnc(Cl)s1)c1nc(N(C)C)ccc1[N+](=O)[O-]

Result:
> 90%
> 90%
> 90%
> 90%
